- Assay System: CDK12 (nuclear staining in CAL-120 cells) (Homo sapiens)
- Construct: endogenous in cells; host or cells: CAL-120 human breast cancer cells (DSMZ ACC 459)
- Sequence (Q9NYV4 whole entry): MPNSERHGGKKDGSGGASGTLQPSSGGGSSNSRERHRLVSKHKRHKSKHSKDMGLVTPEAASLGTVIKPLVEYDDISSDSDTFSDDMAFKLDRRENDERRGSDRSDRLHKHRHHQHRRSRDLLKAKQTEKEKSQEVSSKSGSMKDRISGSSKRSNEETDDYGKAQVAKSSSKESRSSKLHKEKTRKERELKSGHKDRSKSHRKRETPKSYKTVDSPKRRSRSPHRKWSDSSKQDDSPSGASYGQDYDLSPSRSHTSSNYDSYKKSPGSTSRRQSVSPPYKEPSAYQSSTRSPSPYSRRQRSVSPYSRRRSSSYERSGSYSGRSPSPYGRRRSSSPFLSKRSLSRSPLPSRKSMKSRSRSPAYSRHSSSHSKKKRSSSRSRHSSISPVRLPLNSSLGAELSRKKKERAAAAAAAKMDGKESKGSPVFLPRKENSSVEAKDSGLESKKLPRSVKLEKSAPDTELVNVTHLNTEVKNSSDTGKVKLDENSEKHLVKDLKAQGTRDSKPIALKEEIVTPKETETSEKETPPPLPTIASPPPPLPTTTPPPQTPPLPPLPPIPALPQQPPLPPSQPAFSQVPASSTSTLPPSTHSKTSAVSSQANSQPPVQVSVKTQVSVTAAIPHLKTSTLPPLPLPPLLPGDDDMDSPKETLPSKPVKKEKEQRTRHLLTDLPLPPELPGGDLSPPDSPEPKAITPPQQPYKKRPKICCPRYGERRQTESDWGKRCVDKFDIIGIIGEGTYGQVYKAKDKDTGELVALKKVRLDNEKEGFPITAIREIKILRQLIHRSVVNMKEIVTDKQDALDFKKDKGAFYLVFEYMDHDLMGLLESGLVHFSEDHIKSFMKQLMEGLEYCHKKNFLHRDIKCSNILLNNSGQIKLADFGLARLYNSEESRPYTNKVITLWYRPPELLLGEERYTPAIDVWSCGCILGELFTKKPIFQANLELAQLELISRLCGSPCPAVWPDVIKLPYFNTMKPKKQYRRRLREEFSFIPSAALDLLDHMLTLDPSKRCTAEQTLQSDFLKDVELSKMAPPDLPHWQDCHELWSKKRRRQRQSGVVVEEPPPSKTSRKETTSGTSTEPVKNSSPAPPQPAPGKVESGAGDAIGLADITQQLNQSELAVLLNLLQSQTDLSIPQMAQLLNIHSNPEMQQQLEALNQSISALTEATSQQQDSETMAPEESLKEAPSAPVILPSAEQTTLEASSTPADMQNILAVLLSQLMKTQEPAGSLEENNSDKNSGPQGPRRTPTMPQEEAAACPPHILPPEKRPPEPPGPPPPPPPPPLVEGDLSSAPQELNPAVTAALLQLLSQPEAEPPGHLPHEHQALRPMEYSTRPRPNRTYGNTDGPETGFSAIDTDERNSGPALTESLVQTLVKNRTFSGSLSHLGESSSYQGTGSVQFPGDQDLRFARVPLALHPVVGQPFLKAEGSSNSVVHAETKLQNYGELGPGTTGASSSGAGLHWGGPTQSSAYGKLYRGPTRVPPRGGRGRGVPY
- Sequence (O75909 whole entry partner): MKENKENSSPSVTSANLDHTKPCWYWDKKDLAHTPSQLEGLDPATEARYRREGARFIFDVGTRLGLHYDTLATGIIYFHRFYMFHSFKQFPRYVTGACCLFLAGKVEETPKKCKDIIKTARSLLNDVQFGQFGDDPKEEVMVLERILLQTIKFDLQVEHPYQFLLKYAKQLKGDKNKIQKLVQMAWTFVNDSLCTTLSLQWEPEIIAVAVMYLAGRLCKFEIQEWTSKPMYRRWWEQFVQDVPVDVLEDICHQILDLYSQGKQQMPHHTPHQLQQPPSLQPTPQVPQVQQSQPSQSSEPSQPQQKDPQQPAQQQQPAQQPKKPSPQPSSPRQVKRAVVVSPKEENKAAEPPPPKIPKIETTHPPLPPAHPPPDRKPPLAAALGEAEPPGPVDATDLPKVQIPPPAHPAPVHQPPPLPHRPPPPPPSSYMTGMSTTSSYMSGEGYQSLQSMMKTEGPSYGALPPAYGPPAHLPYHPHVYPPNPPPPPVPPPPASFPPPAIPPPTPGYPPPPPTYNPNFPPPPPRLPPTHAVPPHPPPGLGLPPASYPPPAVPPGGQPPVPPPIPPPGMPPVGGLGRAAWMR
- Procedure Summary: CDK12 nuclear protein level: immunofluorescence/high content analysis (CAL-120)
- Assay type: cell-based
- Measurement Setup: CAL-120 cells, 24 h, immunofluorescence; 50% reduction of nuclear CDK12 staining intensity; median; read-out: CDK12 degradation IF, DC50- [mol/l] (median)
Property Measured: DC50 (nM)
Provide the reading as a plain figure in nM.

What value of DC50 on CDK12 (nuclear staining in CAL-120 cells) (Homo sapiens) does COc1cccc2[nH]c(CNc3nc(N4C[C@@H](C)N[C@@H](C)C4)nc4c(C5CC5)cnn34)nc12 [Example 212] have?
1.09

// map COC(=O)C1CCN(c2nc(NCc3nnc(-c4ccccc4)[nH]3)n3ncc(Br)c3n2)CC1 [Example 77] to recorded DC50 (system: CDK12 (nuclear staining in CAL-120 cells) (Homo sapiens))
116

Write down the reported DC50 of COC(C)(C)CNc1nc(NCc2nc3ccccc3[nH]2)n2ncc(Br)c2n1 [Example 236] , test system: CDK12 (nuclear staining in CAL-120 cells) (Homo sapiens).
7.18

Enter reported DC50 observed with CDK12 (nuclear staining in CAL-120 cells) (Homo sapiens) for CN1C2CCC1CN(c1nc(NCc3nc4c(F)cccc4[nH]3)n3ncc(C(F)(F)F)c3n1)C2 [Example 384]
11

# returns recorded DC50 (system: CDK12 (nuclear staining in CAL-120 cells) (Homo sapiens)) for OC[C@@H]1CCCCN1c1nc(NCc2nc3c(F)c(F)ccc3[nH]2)n2ncc(C3CC3)c2n1 [Example 184]
1.75

Lab request: please report DC50 under test system CDK12 (nuclear staining in CAL-120 cells) (Homo sapiens) for Fc1ccc2[nH]c(CNc3nc(N4CCOCC4)nc4c(C5CC5(F)F)cnn34)nc2c1 (racemic) [Example 286]
5.38

Provide value of DC50 for this record tested with CDK12 (nuclear staining in CAL-120 cells) (Homo sapiens): CC1(C)CN(c2nc(NCc3nnc(-c4ccccc4)[nH]3)n3ncc(C4CC4)c3n2)CCO1 [Example 94]
25

Item c1ccc2[nH]c(CNc3nc(N4CCOCC4)nc4c(-c5ccncc5)cnn34)nc2c1 [Example 111] with CDK12 (nuclear staining in CAL-120 cells) (Homo sapiens) - DC50?
1.22

Return DC50 measured with CDK12 (nuclear staining in CAL-120 cells) (Homo sapiens) given this molecule: CCc1cnn2c(NCc3nc4ccccc4[nH]3)nc(N3CCOCC3)nc12 [Example 431]
3.39

Please state recorded DC50 (tested on CDK12 (nuclear staining in CAL-120 cells) (Homo sapiens)) of CC1CN(c2nc(NCc3nc4ccccc4[nH]3)n3ncc(C(C)C)c3n2)CCO1 (racemic) [Example 11]
12.6

Item: Fc1ccc2[nH]c(CNc3nc(N4C[C@@H]5C[C@H]4CO5)nc4c(C5CC5)cnn34)nc2c1F [Example 173] Test system: CDK12 (nuclear staining in CAL-120 cells) (Homo sapiens) Read-out: DC50 Value: ?
1.74

Give DC50 (CDK12 (nuclear staining in CAL-120 cells) (Homo sapiens)) of the following molecule: Brc1cnn2c(NCc3nnc(-c4ccccc4)[nH]3)nc(N3C[C@@H]4C[C@H]3CO4)nc12 [Example 120]
5.08

Item Brc1cnn2c(NCc3nc4ccccc4[nH]3)nc(OC3CCOCC3)nc12 [Example 405] with CDK12 (nuclear staining in CAL-120 cells) (Homo sapiens) - DC50?
113

Record Brc1cnn2c(NCc3nc4ccccc4[nH]3)nc(N3CC4CCC3CO4)nc12 (stereo not shown) [Example 352] : what is its DC50 with CDK12 (nuclear staining in CAL-120 cells) (Homo sapiens)?
5.68

Short answer please: DC50, CDK12 (nuclear staining in CAL-120 cells) (Homo sapiens), entry Fc1ccc2[nH]c(CNc3nc(N4C[C@@H]5CCCN[C@@H]5C4)nc4c(C5CC5)cnn34)nc2c1 [Example 180]
1.59

Any idea what DC50 came out for Fc1cccc2[nH]c(CNc3nc(N4C[C@@H]5CCCN[C@@H]5C4)nc4c(C5CC5)cnn34)nc12 [Example 187] on CDK12 (nuclear staining in CAL-120 cells) (Homo sapiens)?
0.707

Checklist item: DC50 tested on CDK12 (nuclear staining in CAL-120 cells) (Homo sapiens), entry FC(F)(F)c1cnn2c(NCc3nnc(-c4ccccc4)[nH]3)nc(N3CCOCC3)nc12 [Example 427] , value?
14.7

Requested read-out DC50, target or system CDK12 (nuclear staining in CAL-120 cells) (Homo sapiens), entry CC(C)c1cnn2c(NCc3nnc(-c4ccccc4)[nH]3)nc(N3CCN(C)CC3)nc12 [Example 37]
42.8

DC50 of Cc1cc2nc(CNc3nc(N4CCN(C)CC4)nc4c(Br)cnn34)[nH]c2cc1C [Example 342] on CDK12 (nuclear staining in CAL-120 cells) (Homo sapiens)?
2.12

Hello, I am looking for reported DC50 with CDK12 (nuclear staining in CAL-120 cells) (Homo sapiens) for Fc1ccc2[nH]c(CNc3nc(N4CCOCC4)nc4c(-c5cnn(C(F)F)c5)cnn34)nc2c1F [Example 422] . Could you help?
6.81

Field: DC50 (CDK12 (nuclear staining in CAL-120 cells) (Homo sapiens)). Entry: Clc1cc2nc(CNc3nc(N4CCOCC4)nc4c(-c5ccnnc5)cnn34)[nH]c2cc1Cl.O=C(O)C(F)(F)F [Example 440]
6.67

What value of DC50 on CDK12 (nuclear staining in CAL-120 cells) (Homo sapiens) does COCCNc1nc(NCc2nc3ccccc3[nH]2)n2ncc(Br)c2n1 [Example 230] have?
66

Recorded DC50 for COC(C)(C)COc1nc(NCc2nc3ccccc3[nH]2)n2ncc(Br)c2n1 [Example 403] with CDK12 (nuclear staining in CAL-120 cells) (Homo sapiens), please?
43.1

Enter reported DC50 observed with CDK12 (nuclear staining in CAL-120 cells) (Homo sapiens) for CC1(C)CN(c2nc(NCc3nnc(-c4ccccc4)[nH]3)n3ncc(Br)c3n2)CCO1 [Example 68]
13.3

Request - read-out DC50 | tested on CDK12 (nuclear staining in CAL-120 cells) (Homo sapiens) | molecule Cn1cc(-c2cnn3c(NCc4nc5c(F)c(F)ccc5[nH]4)nc(N4CCOCC4)nc23)cn1 [Example 418]
39

Requested read-out DC50, target or system CDK12 (nuclear staining in CAL-120 cells) (Homo sapiens), entry CC(C)c1cnn2c(NCc3nc4ccccc4[nH]3)nc(Nc3ccccc3)nc12 [Example 13]
43.8

Give DC50 (CDK12 (nuclear staining in CAL-120 cells) (Homo sapiens)) of the following molecule: Fc1ccc2[nH]c(CNc3nc(N4CCOCC4)nc4c([C@@H]5CC5(F)F)cnn34)nc2c1 (single isomer, unassigned) [Example 315]
33.9

// lookup DC50 | system=CDK12 (nuclear staining in CAL-120 cells) (Homo sapiens) | key= CC(C)c1cnn2c(NCc3ncc(-c4ccccc4)[nH]3)nc(N3CCN(C)CC3)nc12 [Example 31]
19.7

Which measured DC50 belongs to CN(CC(C)(C)O)c1nc(NCc2nc3c(F)cccc3[nH]2)n2ncc(C3CC3)c2n1 [Example 295] , tested on CDK12 (nuclear staining in CAL-120 cells) (Homo sapiens)?
3.52

Hi! What's the reported DC50 for FC(F)(F)c1ccc2[nH]c(CNc3nc(N4CC5CCC(C4)N5)nc4c(Br)cnn34)nc2c1 [Example 354] on CDK12 (nuclear staining in CAL-120 cells) (Homo sapiens)?
71.3

Lab request: please report DC50 under test system CDK12 (nuclear staining in CAL-120 cells) (Homo sapiens) for Brc1cnn2c(NCc3ncc(-c4ccccc4)[nH]3)nc(N3CCOCC3)nc12 [Example 23]
3.45
